As shown below, each of these molecules has a reported Post-emergence action against POLCO in % value.
- System: Polygonum convolvulus (POLCO)
- method_notes: Post-emergence herbicidal action against POLCO
- Format: in vivo
- condition_parameters: dosage 320 g/ha

Tell me its Post-emergence action against POLCO in % given `COC(=O)[C@@H](C)Oc1nn(-c2ncccc2F)c(-c2cccnc2)c1C#N` as the entry.
90%

Query Post-emergence action against POLCO in % for `C[C@@H](Oc1nn(-c2ncccc2F)c(-c2ccc(F)nc2)c1Br)C(=O)O`
80%

Please list Post-emergence action against POLCO in % recorded for the molecule `COC(=O)CNC(=O)COc1nn(-c2ccccn2)c(-c2ccc(F)nc2)c1F`
80%

Write down Post-emergence action against POLCO in % measured for item `COC(=O)[C@@H](C)Oc1nn(-c2nc(F)ccc2F)c(-c2cncc(F)c2)c1Cl`
80%

Supply reported Post-emergence action against POLCO in % belonging to this molecule: COC(=O)C(C)OC(=O)C(C)Oc1nn(-c2ccccn2)c(-c2cncc(F)c2)c1Br (mixture of isomers)
80%

* * *

- Tested on: Matricaria inodora (MATIN)
- method_notes: Pre-emergence herbicidal action against MATIN
- Format: in vivo
- condition_parameters: dosage 80 g/ha
measured_parameter: Pre-emergence action against MATIN in %
Give your result as the value with the unit written after it.

Some compounds with recorded Pre-emergence action against MATIN in %:
INSERT INTO results (compound_structure, target_desc, value) VALUES
  ('COC(=O)[C@@H](C)Oc1nn(-c2ncccc2F)c(-c2cncc(F)c2)c1Br', 'Matricaria inodora (MATIN)', '100%'),
  ('CCOC(=O)COc1nn(-c2nc(F)ccc2F)c(-c2cncc(F)c2)c1Cl', 'Matricaria inodora (MATIN)', '90%'),
  ('CCOC(=O)COc1nn(-c2ncccc2C(F)(F)F)c(-c2ccc(F)nc2)c1Cl', 'Matricaria inodora (MATIN)', '100%');

Next, consider the following compound.
Give recorded Pre-emergence action against MATIN in %. `COCCOC(=O)COc1nn(-c2ncccc2C)c(-c2cncc(F)c2)c1Br`
80%

* * *

- Test system: Setaria viridis (SETVI)
- method_notes: Pre-emergence herbicidal action against SETVI
- Type: in vivo
- condition_parameters: dosage 80 g/ha
measured_parameter: Pre-emergence action against SETVI in % (%)
Give the value, in units of %, as a plain number.

INSERT INTO measurements (compound_structure, value) VALUES
  ('CCOC(=O)COc1nn(-c2nc(F)ccc2F)c(-c2cncc(F)c2)c1Cl', 80),
  ('Cc1cccnc1-n1nc(OCC(=O)O)c(Br)c1-c1cncc(F)c1', 90);

Next, consider the following compound.
Provide only the value of recorded Pre-emergence action against SETVI in % for `C[C@@H](Oc1nn(-c2ncccc2F)c(-c2ccc(F)nc2)c1I)C(=O)O`
100

* * *

- Test system: Zea mays (ZEAMX)
- Format: in vivo
- condition_parameters: crop plant compatibility, 80 g/ha, effect vs untreated controls
- Description: Seeds of monocotyledonous and dicotyledonous weeds and crop plants are placed in sandy loam in plastic or organic planting pots, covered with soil and cultivated in a greenhouse under controlled growth conditions. 2 to 3 weeks after sowing, the test plants are treated at the one-leaf stage. […]
Below, each of the compounds is paired with its reported Post-emergence action against ZEAMX in % value.
Answer in %, number only, no unit symbol.

Under Zea mays (ZEAMX), report Post-emergence action against ZEAMX in % for `COCCOCCOC(=O)[C@@H](C)Oc1nn(-c2ncccc2F)c(-c2ccc(F)nc2)c1Br`
10

State, for Zea mays (ZEAMX), measured Post-emergence action against ZEAMX in % of the compound listed here: COC(=O)C(C)COC(=O)COc1nn(-c2ncccc2C(F)(F)F)c(-c2ccc(F)nc2)c1C1CC1(F)F (centres unmarked)
0

// output Post-emergence action against ZEAMX in %; input `COC(=O)CCOC(=O)COc1nn(-c2ncccc2F)c(-c2ccc(F)nc2)c1C1CC1` ; system Zea mays (ZEAMX)
20

Report its Post-emergence action against ZEAMX in % with Zea mays (ZEAMX) as the test system: `COC(=O)CCOC(=O)COc1nn(-c2cccc(C)n2)c(-c2ccc(F)nc2)c1Br`
20

Find the measured Post-emergence action against ZEAMX in % of `COC(=O)[C@H](C)NC(=O)COc1nn(-c2ccnc(F)c2)c(-c2ccc(F)nc2)c1Br` with Zea mays (ZEAMX) as test system.
0

Look up and report Post-emergence action against ZEAMX in %, with Zea mays (ZEAMX) as system, for `Cc1cccnc1-n1nc(OCC(=O)O)c(Br)c1-c1ccc(F)nc1`
0

Give Zea mays (ZEAMX) Post-emergence action against ZEAMX in % for the following compound: `COC(=O)CCOC(=O)COc1nn(-c2ncccc2C(F)(F)F)c(-c2ccc(F)nc2)c1Br`
0

Please report Post-emergence action against ZEAMX in % with Zea mays (ZEAMX) for item `CCOC(=O)COc1nn(-c2ncccc2C(F)(F)F)c(-c2cncc(F)c2)c1I` .
20

Param request: Post-emergence action against ZEAMX in % | system Zea mays (ZEAMX) | item C[C@@H](Oc1nn(-c2ncccc2F)c(-c2ccc(F)nc2)c1Br)C(=O)O [Example I-50]
0

Quote Post-emergence action against ZEAMX in % with test system Zea mays (ZEAMX) for COC(=O)C(C)OC(=O)C(C)Oc1nn(-c2ccccn2)c(-c2ccc(F)nc2)c1Cl (centres unmarked)
10

* * *

- Tested on: Matricaria inodora (MATIN)
- method_notes: Pre-emergence herbicidal action against MATIN
- Format: in vivo
- condition_parameters: dosage 80 g/ha
measured_parameter: Pre-emergence action against MATIN in % (%)
Give just the number in %; leave the unit off.

INSERT INTO assay_data (compound_structure, target_desc, measured_parameter, unit_info, value) VALUES
  ('CCOC(=O)CSc1nn(-c2ccccn2)c(-c2cncc(F)c2)c1Cl', 'Matricaria inodora (MATIN)', 'Pre-emergence action against MATIN in %', '%', 90),
  ('COC(=O)CCOC(=O)COc1nn(-c2ccccn2)c(-c2cncc(F)c2)c1Cl', 'Matricaria inodora (MATIN)', 'Pre-emergence action against MATIN in %', '%', 90),
  ('CC(C)=NOC(=O)COc1nn(-c2ncccc2F)c(-c2ccc(F)nc2)c1Br', 'Matricaria inodora (MATIN)', 'Pre-emergence action against MATIN in %', '%', 80),
  ('CCOC(=O)COc1nn(-c2nc(F)ccc2F)c(-c2cncc(F)c2)c1Br', 'Matricaria inodora (MATIN)', 'Pre-emergence action against MATIN in %', '%', 90),
  ('COC(=O)[C@@H](C)Oc1nn(-c2nc(F)ccc2F)c(-c2cncc(F)c2)c1Cl', 'Matricaria inodora (MATIN)', 'Pre-emergence action against MATIN in %', '%', 90);

Answer with reported Pre-emergence action against MATIN in % of `CCOC(=O)[C@@H](C)Oc1nn(-c2nc(F)ccc2F)c(-c2cncc(F)c2)c1Cl`
90

Please give the documented Pre-emergence action against MATIN in % of `COC(=O)[C@H](C)COC(=O)COc1nn(-c2ccccn2)c(-c2ccc(F)nc2)c1Br`
90

Tell me its Pre-emergence action against MATIN in % given `O=C(O)COc1nn(-c2ccccn2)c(-c2cncc(F)c2)c1Br` as the entry.
90

* * *

- Test system: Zea mays (ZEAMX)
- Type: in vivo
- condition_parameters: crop plant compatibility, 80 g/ha, effect vs untreated controls
- Protocol: Seeds of monocotyledonous and dicotyledonous weeds and crop plants are placed in sandy loam in plastic or organic planting pots, covered with soil and cultivated in a greenhouse under controlled growth conditions. 2 to 3 weeks after sowing, the test plants are treated at the one-leaf stage. […]
measured_parameter: Post-emergence action against ZEAMX in %
Numeric answer plus unit only.

Sample records with Post-emergence action against ZEAMX in %:
INSERT INTO measurements (compound, value) VALUES
  ('O=C(O)COc1nn(-c2ncccc2Cl)c(-c2ccc(F)nc2)c1Br [Example I-26]', '0%'),
  ('Cc1cccc(-n2nc(OCC(=O)O)c(Br)c2-c2ccc(F)nc2)n1 [Example I-376]', '10%'),
  ('CCOC(=O)C(C)Oc1nn(-c2ccccn2)c(-c2ccc(F)nc2)c1Br (centres unmarked) [Example I-102]', '20%'),
  ('CCOC(=O)COc1nn(-c2ncccc2F)c(-c2ccnc(F)c2)c1Br [Example I-136]', '10%'),
  ('COC(=O)C=CC(C)NC(=O)COc1nn(-c2ccccn2)c(-c2ccc(F)nc2)c1Br (centres unmarked) [Example I-345]', '0%'),
  ('CCOC(=O)COc1nn(-c2cccc(C)n2)c(-c2ccc(F)nc2)c1Br [Example I-312]', '10%'),
  ('O=C(O)COc1nn(-c2ccnc(Cl)c2)c(-c2ccc(F)nc2)c1Br [III-23]', '0%'),
  ('COC(=O)[C@@H](C)Oc1nn(-c2ncccc2F)c(-c2cccnc2)c1C#N [Example I-04]', '0%');

Check Zea mays (ZEAMX) data and give Post-emergence action against ZEAMX in % for O=C(COc1nn(-c2ccccn2)c(-c2ccc(F)nc2)c1Br)OCC1CCOC1 (centres unmarked) [Example I-90] .
10%

With Zea mays (ZEAMX) as the test system, provide measured Post-emergence action against ZEAMX in % for this compound: CCOC(=O)C(C)Oc1nn(-c2ccccn2)c(-c2ccc(F)nc2)c1I (centres unmarked) [Example I-101]
10%

Jot down Post-emergence action against ZEAMX in % (Zea mays (ZEAMX)) of CCOC(=O)COc1nn(-c2nc(F)ccc2F)c(-c2ccc(F)nc2)c1Cl [Example I-315] .
20%

Look up Zea mays (ZEAMX) data: Post-emergence action against ZEAMX in % of COC(=O)CNC(=O)COc1nn(-c2ccccn2)c(-c2ccc(F)nc2)c1C1CC1 [Example I-70] , then report it.
10%
